System: LOC_OS01G48390-cb002;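 further: purified Escherichia coli-expressed rice kinase domain construct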
protocolText: thermal shift delta Tm vs DMSO control; higher = stronger stabilization (binding)
condition: 12.5 µM; protein concentration 2 µM
Counter-ions that a name gives are not always drawn.
Parameter threshold = 0.8 °C. Response is TRUE when thermal shift delta Tm meets or exceeds it, else FALSE.

Sample answers from the record:
[[record]]
molecule = "CC(=O)Nc1cccc(-n2c(=O)n(C3CC3)c(=O)c3c(Nc4ccc(I)cc4F)n(C)c(=O)c(C)c32)c1"
discretelabel = "FALSE"

[[record]]
molecule = "O=C(Nc1cnn2ccc(N3CCC[C@@H]3c3cc(F)ccc3F)nc12)N1CC[C@H](O)C1 [Larotrectinib (LOXO-101) sulfate]"
discretelabel = "TRUE"

[[record]]
molecule = "CCCCCCCCc1ccc(CCC(N)(CO)CO)cc1 [Fingolimod (FTY720) HCl]"
discretelabel = "FALSE"

[[record]]
molecule = "CC(C)NC[C@@H](C(=O)N1CCN(c2ncnc3c2[C@H](C)C[C@H]3O)CC1)c1ccc(Cl)cc1"
discretelabel = "FALSE"

[[record]]
molecule = "C[C@@H](N)[C@H]1CC[C@H](C(=O)Nc2ccncc2)CC1"
discretelabel = "FALSE"

[[record]]
molecule = "Cc1cc(O)c2c(c1)C(=O)c1cccc(O)c1C2=O"
discretelabel = "TRUE"

[[record]]
molecule = "N#Cc1cccc(-c2c[nH]c3ncnc(N4CCOCC4)c23)c1"
discretelabel = "FALSE"

[[record]]
molecule = "Cc1nc(Nc2cnn(C3CCNCC3)c2)nc2c1N(C)C(=O)c1cc3ccccc3cc1N2C"
discretelabel = "FALSE"

[[record]]
molecule = "CCn1nc(C2CCN(C(=O)CCO)CC2)nc1-c1cnc(N)c(-c2nnc(C(C)(C)C)o2)n1"
discretelabel = "FALSE"

[[record]]
molecule = "Cn1c2ccccc2c2c3c(c4c5ccccc5n(CCC#N)c4c21)CNC3=O"
discretelabel = "TRUE"


Tell me whether thermal shift delta Tm is at least 0.8 °C here: COc1ccc(COc2cc3oc(=O)c4cc(C(C)O)ccc4c3cc2OC)cc1 (stereo not drawn)
FALSE

Tell me whether thermal shift delta Tm is at least 0.8 °C here: COc1ccc2c(Oc3ccc(NC(=O)c4c(C)n(CC(C)(C)O)n(-c5ccccc5)c4=O)nc3)ccnc2c1
FALSE

Tell me whether thermal shift delta Tm is at least 0.8 °C here: Oc1cccc(-c2nc(N3CCOCC3)c3oc4ncccc4c3n2)c1
FALSE

Tell me whether thermal shift delta Tm is at least 0.8 °C here: CC[C@@H]1C(=O)N(C)c2cnc(Nc3ccc(C(=O)NC4CCN(C)CC4)cc3OC)nc2N1C1CCCC1
FALSE

Tell me whether thermal shift delta Tm is at least 0.8 °C here: Oc1cc(O)cc(/C=C/c2ccc(O)c(O)c2)c1
TRUE

These data points were gathered from the supplement of paper PMC9694430.
